Assign pIC50 to each entry below.
Tested on: SET-2 cells
RUN DESCRIPTION: Cell line drug sensitivity (CellTiter-Glo)
Assay type: cell-based
CONDITION SET: Homo sapiens, SET-2, 48 h
Reminder that pIC50 is minus the log10 of a molar concentration.

Asked: For the compound CC1([C@H](N)C(=O)N2CCC[C@H]2B(O)O)CCCCC1 (relative stereo) [ARI-4175CH] , report pIC50.
Given back: 9.00

Asked: Specify reported pIC50 for the compound shown: N[C@H](C(=O)N1CCC[C@H]1B(O)O)C12CC3CC(CC(C3)C1)C2 (relative stereo)
Given back: 9.70

###

What IC50 was measured for each of the following?
Test system: THP-1 cells
RUN DESCRIPTION: Cell line drug sensitivity (CellTiter-Glo)
Format: cell-based
CONDITION SET: Homo sapiens, THP-1, 48 h
API: value field is a number in nM; no unit string.

Asked: Determine reported IC50 for CC1([C@H](N)C(=O)N2CCC[C@H]2B(O)O)CCCCC1 (relative stereo) [ARI-4175CH] ; test system: THP-1 cells.
Given back: 6

Asked: Quote IC50 with test system THP-1 cells for N[C@H](C(=O)N1CCC[C@H]1B(O)O)C12CC3CC(CC(C3)C1)C2 (relative stereo) [ARI-5544, Gly(1-adamantyl)-boroPro]
Given back: 5

Data provenance: patent US11583516B2
